Values compiled from paper PMC5366289.

- assay_summary: Far-UV circular dichroism, helical content of T-domain peptides
- Assay type: physicochemical
- measurement_context: from helical content by far-UV CD, DichroWeb; tags assumed unordered
Measured no. of residues, helix, listed per entry.
experimental_readout: no. of residues, helix

{"molecule": "colicin E1 T-domain peptide T1–120 (domain or fragment, UniProt P02978 1-120, looked up) METAVAYYKDGVPYDDKGQVIITLLNGTPDGSGSGGGGGKGGSKSESSAAIHATAKWSTAQLKKTQAEQAARAKAAAEAQAKAKANRDALTQRLKDIVNEALRHNASRTPSATELAHANN", "experimental_readout": "no. of residues, helix", "value": "46 ± 12 residues"}
{"molecule": "colicin E1 T-domain peptide T57–120 (domain or fragment, UniProt P02978 57-120, looked up) WSTAQLKKTQAEQAARAKAAAEAQAKAKANRDALTQRLKDIVNEALRHNASRTPSATELAHANN", "experimental_readout": "no. of residues, helix", "value": "44 ± 4 residues"}
{"molecule": "colicin E1 T-domain peptide T57–140 (domain or fragment) WSTAQLKKTQAEQAARAKAAAEAQAKAKANRDALTQRLKDIVNEALRHNASRTPSATELAHANNAAMQAEDERLRLAKAEEKAR", "experimental_readout": "no. of residues, helix", "value": "54 ± 4 residues"}
{"molecule": "41–140 ^b: colicin E1 T-domain peptide, residues 41–140 (peptide, UniProt P02978 41-140, looked up, fragment) GGSKSESSAAIHATAKWSTAQLKKTQAEQAARAKAAAEAQAKAKANRDALTQRLKDIVNEALRHNASRTPSATELAHANNAAMQAEDERLRLAKAEEKAR", "experimental_readout": "no. of residues, helix", "value": "65 ± 5 residues"}
